test system: Rattus norvegicus; assay: In vivo anti-vasopressor activity in phenoxybenzamine-treated rats under urethane anesthesia is measured as effective dose; assay type: functional
metric_name: log10(ED) (log10 of the value in nmol/kg)
Response schema: value (number) is log10 of ED in units of nmol/kg.

(Q) # input molecule: CC[C@@H](C)[C@H]1NC(=O)CC2(CCCCC2)SSC[C@@H](C(=O)N2CCC[C@H]2C(=O)N[C@@H](CCCN=C(N)N)C(=O)NCC(N)=O)NC(=O)[C@H](CC(N)=O)NC(=O)[C@H](CC(N)=O)NC(=O)[C@H](Cc2ccccc2)NC1=O ; wanted: its log10(ED)
(A) 0.59

(Q) # input molecule: CC[C@@H](C)[C@H]1NC(=O)CC2(CCCCC2)SSC[C@@H](C(=O)N2CCC[C@H]2C(=O)N[C@@H](CCCN=C(N)N)C(=O)NCC(N)=O)NC(=O)[C@H](CC(N)=O)NC(=O)[C@H]([C@@H](C)O)NC(=O)[C@H](Cc2ccccc2)NC1=O ; wanted: its log10(ED)
(A) 1.02

(Q) # input molecule: CC[C@@H](C)[C@H]1NC(=O)CC2(CCCCC2)SSC[C@@H](C(=O)N2CCC[C@H]2C(=O)N[C@@H](CCCN=C(N)N)C(=O)NCC(N)=O)NC(=O)[C@H](CC(N)=O)NC(=O)[C@H](CCCN)NC(=O)[C@H](Cc2ccccc2)NC1=O ; wanted: its log10(ED)
(A) 1.08

(Q) # input molecule: CC[C@@H](C)[C@H]1NC(=O)CC2(CCCCC2)SSC[C@@H](C(=O)N2CCC[C@H]2C(=O)N[C@@H](CCCN=C(N)N)C(=O)NCC(N)=O)NC(=O)[C@H](CC(N)=O)NC(=O)[C@H](C)NC(=O)[C@H](Cc2ccccc2)NC1=O ; wanted: its log10(ED)
(A) 1.82

(Q) # input molecule: CC[C@@H](C)[C@H]1NC(=O)CC2(CCCCC2)SSC[C@@H](C(=O)N2CCC[C@H]2C(=O)N[C@@H](CCCN=C(N)N)C(=O)NCC(N)=O)NC(=O)[C@H](CC(N)=O)NC(=O)[C@H](CO)NC(=O)[C@H](Cc2ccccc2)NC1=O ; wanted: its log10(ED)
(A) 1.65

(Q) # input molecule: CC[C@@H]1NC(=O)[C@H](Cc2ccccc2)NC(=O)[C@@H]([C@H](C)CC)NC(=O)CC2(CCCCC2)SSC[C@@H](C(=O)N2CCC[C@H]2C(=O)N[C@@H](CCCN=C(N)N)C(=O)NCC(N)=O)NC(=O)[C@H](CC(N)=O)NC1=O ; wanted: its log10(ED)
(A) 1.08

(Q) # input molecule: CC[C@@H](C)[C@H]1NC(=O)CC2(CCCCC2)SSC[C@@H](C(=O)N2CCC[C@H]2C(=O)N[C@@H](CCCN=C(N)N)C(=O)NCC(N)=O)NC(=O)[C@H](CC(N)=O)NC(=O)[C@H](CC(C)C)NC(=O)[C@H](Cc2ccccc2)NC1=O ; wanted: its log10(ED)
(A) 1.09

(Q) # input molecule: CC[C@@H](C)[C@H]1NC(=O)CC2(CCCCC2)SSC[C@@H](C(=O)N2CCC[C@H]2C(=O)N[C@@H](CCCN=C(N)N)C(=O)NCC(N)=O)NC(=O)[C@H](CC(N)=O)NC(=O)[C@H]([C@@H](C)CC)NC(=O)[C@H](Cc2ccccc2)NC1=O ; wanted: its log10(ED)
(A) 1.41
